Data provenance: patent US5164189A

test: in vivo; settings: rhesus monkey, iv, 0.05 mg/kg
TEST_READOUT: AUC
Put your answer as a value accompanied by its unit after it.

Reported AUC ( CC(C)(C)NCC(O)c1ccc(O)c(CO)c1 (stereo not shown) [albuterol] ) = 84.2 ng·h/mL

----------
assay: Intravenous albuterol pharmacokinetics in Rhesus monkeys; conditions: rhesus monkey, serum, iv, 0.05 mg/kg
TEST_READOUT: Vd
Put your answer as a value accompanied by its unit after it.

Reported Vd ( CC(C)(C)NCC(O)c1ccc(O)c(CO)c1 (stereo not shown) [albuterol] ) = 1.94 L/kg
